Below: a set of entries, each annotated with reported polymerase ribozyme fitness (log ratio).
B1: TPR t1 (parent)
chain: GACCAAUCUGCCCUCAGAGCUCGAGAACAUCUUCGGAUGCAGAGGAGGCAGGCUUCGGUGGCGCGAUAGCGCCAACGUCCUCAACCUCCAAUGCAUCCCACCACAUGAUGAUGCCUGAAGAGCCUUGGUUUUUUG

# Variants of: B1
# Measurement protocol: polymerase ribozyme fitness, log enrichment relative to wild type (log ratio); higher = more active; in vitro selection for triplet polymerase activity
// return just the number, without any unit appended

A6U G10C C12U C49A G69C A90C A91U; -2.98
G51U C53U G61U U130A; -3.08
C82G U112G; -2.98

Returns the measured polymerase ribozyme fitness (log ratio) for the input variant. Input: G69U C72U C114A G128A
-3.08

Returns the measured polymerase ribozyme fitness (log ratio) for the input variant. Input: G93A C114G
-2.93
